# system-name: T1, Human CD40 antigen (recombinant, BLI) (human, UniProt P25942 21-193)
# T1 construct: also called rh-CD40
# T1 sequence (P25942 21-193 limits assumed): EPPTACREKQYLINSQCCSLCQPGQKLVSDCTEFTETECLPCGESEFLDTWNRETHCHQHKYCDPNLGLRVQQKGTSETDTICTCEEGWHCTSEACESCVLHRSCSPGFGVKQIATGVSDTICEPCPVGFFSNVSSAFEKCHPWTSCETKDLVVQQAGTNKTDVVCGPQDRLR
# method-summary: BLI, VHH-His on anti-His tips, human CD40 in solution;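 further: kinetics measured at 30 °C in PBS pH 7.2, association tracked for 200 s, then dissociation followed in PBS lacking CD40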
measured-attribute: kon (M⁻¹ s⁻¹)

These solved cases illustrate the format of a correct answer.
[[record]]
binder = "pgDD40-HZ-58 (VHH, not shown: small tags and cut ends) VHH: QVQLVESGGGLVQPGESLTLSCVTSGFVFSNHWMYWDRQAPGKGLEWVADINLGGEMTYYSNSVKGRFTISRDNAKNTVSLRMDNLKVEDTAVYFCAANQQTPPYGLGSREYDYDYWGQGTQVTVSS"
endpoint_result = 818000

[[record]]
binder = "pgDD40-SZ-2 (VHH, not shown: small tags and cut ends) VHH: EVQLVESGGALAQPGGSLRLSCEASATIRSVNAMAWYRQGPGKPREMVANITSGDTTYYADSVKGRFTLSREGARNTVYLQMNSLKPEDTAVYQCNIHYTSTGGIRRDYWGRGTQVTVSS"
endpoint_result = 765000


(I) pgDD40-SZ-12 (VHH, not shown: small tags and cut ends) VHH: EVQLVESGGGLVQPGGSLKLSCAASGFAFSRYTMSWVRQAPGKGLEWVSGIDSGGGRTSYINSVKGRFTISRDNAKNTLYLQMNSLKPEDTAVYHCAQGGDSGSYYRTSWGQGTQVTVSS
(II) pgDD40-HZ-28 (VHH, not shown: small tags and cut ends) VHH: EVQLVESGGGLVQAGGSLRLSCVASERTFTPVRMGWFRQAPGKEREIVAAITWSDGSTYYADAVKGRFTISRDNALNAVYLQIDSLKPEDTAVYVCAASTSPYSTHLQFRYWGQGTQVTVSS
Returns: the label, I or II , whose recorded kon is the lower number. Your answer should be the label of the entry you select.
I
